What melting point was measured for each of the following?

Measured melting point, Cc1ccccc1Cc1ccc(Cl)nn1 : 73.5 °C

Measured melting point, Cc1cc(C)cc(SCCC(=O)O)c1 : 69 to 70 °C

Measured melting point, COc1c(N2CC(C)C(C)(N)C2)c(F)cc2c(=O)c(C(=O)O)cn(C3CC3F)c12 (stereo unspecified) : 195 to 196 °C

Measured melting point, CC(C)(Oc1ccccc1S(C)(=O)=O)C(=O)O : 114 to 116 °C

Measured melting point, O=C(Nc1cc(-c2nc(-c3ccccc3)c[nH]2)ccn1)c1ccccc1 : 265 to 267 °C

Measured melting point, OC(Cn1ccnc1)c1ccc2c(c1)Cc1ccccc1-2 (stereo unspecified) : 196 to 199 °C

Measured melting point, CCCc1nc2c(N)nc3ccccc3c2n1CCC(=O)NC : 177 to 178 °C

Measured melting point, O=C(CO)Cc1ccccc1 : 42 to 43 °C

Measured melting point, CC1(C)CCC(C)(C)c2cc(-c3cnn(-c4ccc(C(=O)O)cc4)c3)ccc21 : 229 to 232 °C

Measured melting point, CN(CCNC(N)=N[N+](=O)[O-])c1ccc(Cl)nc1 : 119 to 122 °C

Measured melting point, CC(C)(C)c1nnc(-c2nn(-c3ccc(F)cc3F)c3c2C2CCC3C2)s1 (stereo unspecified) : 109 to 111 °C

Measured melting point, CCCCOCCOc1ccc(-c2ccc3c(c2)C=C(C(=O)O)CCN3c2csc(C)n2)cc1 : 155 to 158 °C

Measured melting point, CCCn1cc(-c2ccc3cc4c(cc3c2)C(C)(C)CCC4(C)C)cc1C(=O)O : 143 to 145 °C

Measured melting point, O=C(O)C1=CSC2C(=Cc3cc4c(s3)CCOC4)C(=O)N12 (stereo unspecified) : > 250 °C

Measured melting point, CCN1N=C(c2ccc(F)cc2)c2cc(F)ccc2CS1(=O)=O : 148 to 151 °C

Measured melting point, COC(=O)Cc1cn(C2CCCCC2)nc1O : 135 to 136 °C

Measured melting point, COC(=O)Cc1ccc2occ(-c3ccc(Br)cc3)c2c1 : 84 to 86 °C

Measured melting point, COc1cc(C(=O)c2cccnc2)ccc1OCc1ccccc1 : 76 °C

Measured melting point, Cc1ccc(S(=O)(=O)n2ccc3cc(C#N)ccc32)cc1 : 129 to 131 °C

Measured melting point, [N-]=[N+]=NCC1=NN=C(c2ccc([N+](=O)[O-])cc2)c2cc3c(cc2C1)OCO3 : 198 to 200 °C

Measured melting point, Cc1cccc(-n2c(-c3sc(Nc4ccc(Cl)cc4)nc3-c3ccccc3)nc3ccccc3c2=O)c1 : 233 to 235 °C

* * *

What melting point was measured for each of the following?

Measured melting point, O=C(OCc1ccccc1)c1ccc(O)c(O)c1 : 147 to 149 °C

Measured melting point, CCN(C(=O)C1CC1)c1cccc(-c2ccnc3c(C(=O)c4ccccc4)cnn23)c1 : 153 to 155 °C

Measured melting point, CC(C)(C)OC(=O)NC(Cc1ccc(OCc2ccccc2)cc1)C(=O)NCC(=O)OCc1ccccc1 (centres undefined) : 101 to 104 °C

Measured melting point, CC(C(N)=O)c1ccc(-c2cn3ccccc3n2)cc1 (centres undefined) : 219 to 220 °C

Measured melting point, CC1=C(CN2CC(C(=O)O)C2)CCc2cc(OCCCc3ccc(F)cc3)ccc21 : 154 to 155 °C

Measured melting point, O=C(O)C(Cc1ccccc1)NC(=O)N1CCc2cc(S(=O)(=O)N3CCN(c4cccc(Cl)c4)CC3)ccc21 (centres undefined) : 134 to 135 °C

Measured melting point, CCCCCCCNC(=O)Nc1ccc(N(C)C)cc1C(=O)NC1CCN(C(c2ccccc2)c2ccccc2)CC1 : 204 to 206 °C

Measured melting point, Cc1ccc(-c2c(-c3ccc(S(C)(=O)=O)cc3)[nH]c3ccccc23)cc1 : 197 to 198 °C

Measured melting point, CCOc1ccc(OCCCc2cn(-c3ccc(C(F)(F)F)cn3)nc2OCC)c(CCC(=O)O)c1 : 104 to 105 °C
